Tested on: BT-549 breast
Assay: NCI tumour cell line growth inhibition, 48 h
Please assign a class to every record based on measured TGI, with ranges lowest (below 4 µM), middle (4 µM to below 40 µM), highest (40 µM or more)

molecule: c1ccc2c(c1)OC(N1CCCC1)c1cnc(N3CCCC3)nc1-2 (stereo not drawn)
assigned label: highest
--
molecule: C=C1CC(COc2cc(=O)oc3ccccc23)(c2ccccc2)OC1=O (stereo not drawn)
assigned label: lowest
--
molecule: Cc1nc(-c2ccc([N+](=O)[O-])cc2)cn2c1nc1ccccc12
assigned label: highest
--
molecule: COc1cnc2cc(C(=O)O)c3c([N+](=O)[O-])cccc3c2c1
assigned label: highest
--
molecule: CCc1c(Oc2ccc(C(C)=O)cc2)c2ccccc2[nH]c1=O
assigned label: highest
--
molecule: COc1cccc(/C=N/NC(=O)c2ccccc2Nc2ccnc(C(F)(F)F)c2)c1O
assigned label: highest
--
molecule: CCCCC/C(C=C(C#N)C#N)=C/c1ccccc1
assigned label: middle
--
molecule: COc1ccc(/C(=C2\O[C@@H]([C@H]3COC(C)(C)O3)[C@H]3OC(C)(C)O[C@@H]23)c2cc(OC)c(OC)c(OC)c2)cc1O
assigned label: highest
--
molecule: O=C1/C(=C/c2ccc(Cl)cc2Cl)N=C(c2ccccc2)N1Cc1ccco1
assigned label: highest
--
molecule: O=C(NCCOCCOCCNc1cccc2c1C(=O)N(C1CCCNC1=O)C2=O)c1cc2c(o1)C(=O)c1ccccc1C2=O (stereo not drawn)
assigned label: lowest
--
molecule: N#C/C(=C1C=C/C(=N/O)C(Br)=C/1)c1ccccc1
assigned label: middle
--
molecule: O=C(Nc1ccc(N2CCNCC2)cc1)c1[nH]ncc1Nc1cc(Oc2ccccc2)ncn1
assigned label: lowest
--
molecule: Cn1cc(-c2cnc3ccc(NC(=O)Nc4ccc(F)c(Br)c4)cc3n2)cn1
assigned label: lowest
--
molecule: COC(=O)CCCCN=Cc1c(O)c(O)c(C(C)C)c2cc(C)c(-c3c(C)cc4c(C(C)C)c(O)c(O)c(C=NCCCCC(=O)OC)c4c3O)c(O)c12
assigned label: middle
--
molecule: Cc1cc(I)cc(CNCCCN2CCSCC2)c1O
assigned label: middle
--
molecule: CN(C)CCCOc1nc2c(c(=O)n(C)c(=O)n2C)n1C (tested in a mixture with another compound)
assigned label: highest
--
molecule: CCOc1cc(NC(C)=O)ccc1C(=O)NNC(=O)c1ccccc1OC(C)=O
assigned label: highest
--
molecule: O=C(CN1CCOCC1)Nc1ccc(Cn2nnc3c2C(=O)c2nnn(Cc4ccc(NC(=O)CN5CCOCC5)cc4)c2C3=O)cc1
assigned label: lowest
